Assay: qHTS Assay for Inhibitors of Hepatitis C Virus (HCV)
Conditions: Huh7.5.1 HCVcc-Cre infection, luciferase reporter, 44 h; series mostly up to 41.8 µM
Text: Hepatitis C virus (HCV) infects about 200 million people in the world. Many infected people progress to chronic liver disease including cirrhosis with a risk of developing liver cancer. To date, there is no effective vaccine for hepatitis C. Current therapy based on interferon is only effective in about half of the patients and is associated with significant adverse effects. The fraction of people with HCV who can complete a successful treatment is estimated to be no more than 10 percent. […]
The whole screen tested about 340,000 compounds, of which about 12,000 (3.5%) were called active. About 18% were inconclusive and are not listed. Calls follow the shape of the dose curve; as a rule, active = well fitted inhibition curve with a large enough effect; inconclusive = small, poorly fitted or top-dose-only effect, or another doubt; inactive = no such curve, though single readings can be large or run the other way. Only a selection was taken, and actives are over-represented in it overall.
Could you please pick one outcome from this set? true (1) = active, false (0) = inactive

What call does the record list for `CCCc1nc(NCc2ccc3c(c2)OCO3)c2nnn(Cc3ccccc3Cl)c2n1` ?
false (0)

What call does the record list for `Cc1cccc(N2O[C@H]3C=CC2CCCC3)n1` ?
true (1)

What call does the record list for `Cc1cccc(N2CCN(Cc3nc(C4CC4)no3)CC2)n1` ?
false (0)

What call does the record list for `COc1cc(/C=N/NC(=O)c2cc(-c3ccccc3C)nc3ccccc23)cc(OC)c1O` ?
false (0)

What call does the record list for `NC(=O)C1(Nc2ccc([N+](=O)[O-])cc2)CCCC1` ?
false (0)

What call does the record list for `Cc1ccc(S(=O)(=O)Nc2nc(CN3CCOCC3)nc3sc(C)c(C)c23)cc1` ?
false (0)

----------
Assay: qHTS Assay for Inhibitors of Hepatitis C Virus (HCV)
Settings: Huh7.5.1 HCVcc-Cre infection, luciferase reporter, 44 h; series mostly up to 41.8 µM
Screen size: about 340,000 compounds; about 12,000 (3.5%) were called active. About 18% were inconclusive and are not listed. Calls follow the shape of the dose curve; as a rule, active = well fitted inhibition curve with a large enough effect; inconclusive = small, poorly fitted or top-dose-only effect, or another doubt; inactive = no such curve, though single readings can be large or run the other way. The sample holds actives, similar compounds and a random draw of the others, so the mix is not that of the screen.
Could you please pick one outcome from this set? active, inactive

What call does the record list for CCN(CC)C(CNC(=O)CSc1nnnn1-c1cccc(F)c1)c1ccco1 (stereo unspecified) ?
active

What call does the record list for `O=C(CSc1nnnn1-c1ccccc1)NCc1ccco1` ?
inactive

What call does the record list for `CCCCNC1(C#N)CCN(Cc2ccccc2)CC1` ?
inactive

What call does the record list for `Cc1cc(NC(=O)CSc2nnnn2-c2ccc(F)cc2)no1` ?
inactive

What call does the record list for `Cc1nn2c(NCCN(C)C)c3c(nc2c1-c1ccccc1)CCC3` ?
active

What call does the record list for CCCCn1c(N)c(N(CCC(C)C)C(=O)CC2OC(=O)c3ccccc32)c(=O)[nH]c1=O (stereo unspecified) ?
inactive

What call does the record list for `COc1ccccc1NC(=O)COC(=O)CNC(=O)C1CCCCC1` ?
inactive

What call does the record list for `CNC(=O)c1cc2c(ccc3ccccc32)oc1=N` ?
inactive

What call does the record list for Cc1cc(C)c(S(=O)(=O)NCC(c2ccc3c(c2)OCO3)N2CCOCC2)c(C)c1 (stereo unspecified) ?
inactive

What call does the record list for `Cc1cc(N2CCCC2)n2nc(C)c(-c3ccccc3)c2n1` ?
inactive

What call does the record list for `CN(C)C(=O)c1coc2nc3ccccc3nc12` ?
inactive

----------
Test: qHTS Assay for Inhibitors of Hepatitis C Virus (HCV)
Conditions: Huh7.5.1 HCVcc-Cre infection, luciferase reporter, 44 h; series mostly up to 41.8 µM
About 12,000 (3.5%) of roughly 340,000 compounds were called active. Not shown: some 18% with an inconclusive outcome. The call rests on the fitted dose curve; in most records, active means well fitted inhibition curve with a large enough effect; inconclusive means small, poorly fitted or top-dose-only effect, or another doubt; inactive means no such curve, though single readings can be large or run the other way. This excerpt belongs to a sample that is enriched for actives.
Could you please pick one outcome from this set? active, inactive

What call does the record list for `O=C(NNC(=O)C1CCN(c2ncccn2)CC1)c1ccccc1` ?
inactive

What call does the record list for `Cc1occc1-c1nnc(SCC(=O)NC2(C#N)CCCC2)n1C` ?
inactive

What call does the record list for `c1cnc(Nc2nc(-c3ccc4ccccc4c3)cs2)nc1` ?
inactive

What call does the record list for `Cc1cccc(Nc2nc(-c3ccccc3)cs2)n1` ?
inactive

What call does the record list for `COc1cccc(CC(=NO)c2cccc(OC)c2)c1` ?
inactive

What call does the record list for `CCc1ccc(C(=O)NNC(=O)C2CCN(c3ncnc4sc(C)c(C)c34)CC2)cc1` ?
active

What call does the record list for `COc1ccc(N2CCN(C(=O)CCNC(=O)c3ccc(Br)cc3)CC2)cc1` ?
inactive

What call does the record list for `O=C(Cc1ccccc1)NNC(=O)C1CCN(c2ncccn2)CC1` ?
inactive

What call does the record list for `Cc1cc(=O)n2nc(N3CCC(C(=O)Nc4c(F)c(F)c(F)c(F)c4F)CC3)sc2n1` ?
inactive

What call does the record list for `COc1cc(C(=O)NCC(=O)NCCSc2ccc(Br)cc2)cc(OC)c1OC` ?
inactive

What call does the record list for CC1CC(C)CN(C(=O)COC(=O)c2ccc3ncsc3c2)C1 (stereo unspecified) ?
inactive

Value source: PubChem BioAssay AID651820
